# credit: ChEMBL document CHEMBL4483862

System: Plasmodium berghei
Measurement notes: Luciferase/luciferin-expressing antifolate-resistant parasites were used to infect a culture of HepG2 cells that were pre-incubated with compounds. Infected hepatocytes emit light due to the luciferase reaction. Assay results are presented as the percent inhibition of light emission compared to control. […]
Type: functional
Condition context: sporozoite, HEPG2TOX_HILL_SLOPE 1.27, HEPG2TOX_R_SQUARED 0.641, PBLUC_HILL_SLOPE 2.13, PBLUC_R_SQUARED 0.388, read-out: LUCIFERASE INFECTION ASSAY - IC50
Attribute measured: IC50 (µM)
Give bare numbers, in µM.

Problem: Return reported IC50; argument: N#CCCNS(=O)(=O)c1cccc(C(=O)Nc2ccc(Nc3ccccc3)cc2)c1
Result: 1.72
